Recorded values, source patent US12060347B2.

pIC50 values, listed per item
ASSAYED TARGET: human PAR4 (Homo sapiens)
Sequence (Q96RI0 18-385): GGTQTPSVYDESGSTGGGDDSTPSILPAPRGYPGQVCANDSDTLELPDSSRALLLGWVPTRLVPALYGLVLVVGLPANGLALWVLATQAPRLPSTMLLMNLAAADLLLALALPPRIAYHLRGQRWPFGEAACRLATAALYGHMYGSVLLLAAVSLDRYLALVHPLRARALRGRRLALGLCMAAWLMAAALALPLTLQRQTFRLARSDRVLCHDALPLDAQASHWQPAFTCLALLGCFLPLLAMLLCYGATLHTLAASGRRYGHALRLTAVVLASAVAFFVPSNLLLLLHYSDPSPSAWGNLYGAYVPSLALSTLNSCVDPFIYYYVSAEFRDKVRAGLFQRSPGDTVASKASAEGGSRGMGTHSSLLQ
ASSAY DETAILS: PAR4 FLIPR assay: antagonism of agonist-peptide-induced calcium mobilization in PAR4-expressing HEK293 cells
CONDITION DETAILS: H-Ala-Phe(4-F)-[…]NH2-induced intracellular calcium mobilization, 11-point curves
pIC50: −log10 of the molar value.

CHEMICAL STRING: COc1cnc2c(-c3nc4c(C)cc(OCCOC(=O)Nc5cnc(Cl)nc5)cc4s3)cc(C)cc2n1
pIC50: 7.80
--
CHEMICAL STRING: COc1cnc2c(-c3cc4cc(OC)c(F)cc4o3)cc(C)cc2n1
pIC50: 7.55
--
CHEMICAL STRING: COc1ccc(NC(=O)OCCOc2cc(C)c3nc(-c4cc(CO)cc5nc(OC)cnc45)sc3c2)cn1
pIC50: 9.30
--
CHEMICAL STRING: COc1ccc2oc(-c3cc(C)cc4nc(OC(F)F)cnc34)cc2c1
pIC50: 7.96

* * *

ASSAYED TARGET: human PAR4 (Homo sapiens, UniProt Q96RI0)
Construct: expressed in transfected cells; host or cells: HEK293 PAR4 Clone 1.2A (BMS Arctic ID 383940)
ASSAY DETAILS: PAR4 FLIPR assay: antagonism of agonist-peptide-induced calcium mobilization in PAR4-expressing HEK293 cells
Assay type: cell-based
CONDITION DETAILS: H-Ala-Phe(4-F)-[…]NH2-induced intracellular calcium mobilization, 11-point curves
pIC50: −log10 of the molar value.

CHEMICAL STRING: Cc1cc(-c2nc3ccccc3s2)c2ncc(OC(F)F)nc2c1
pIC50: 7.77
//
CHEMICAL STRING: COc1cnc2c(-c3nc4cc(F)c(O[C@@H](C)[C@@H](C)OC(=O)Nc5cnc(C(=O)NC[C@H](C)O)nc5)nc4s3)cc(C)cc2n1
pIC50: 7.92
//
CHEMICAL STRING: Cc1cc(-c2nc3cccc(CO)c3s2)c2ncc(OC(F)F)nc2c1
pIC50: 8.13

* * *

Some molecules, each annotated with its measured IC50.
ASSAYED TARGET: human PAR4 (Homo sapiens, UniProt Q96RI0)
Sequence (Q96RI0 18-385): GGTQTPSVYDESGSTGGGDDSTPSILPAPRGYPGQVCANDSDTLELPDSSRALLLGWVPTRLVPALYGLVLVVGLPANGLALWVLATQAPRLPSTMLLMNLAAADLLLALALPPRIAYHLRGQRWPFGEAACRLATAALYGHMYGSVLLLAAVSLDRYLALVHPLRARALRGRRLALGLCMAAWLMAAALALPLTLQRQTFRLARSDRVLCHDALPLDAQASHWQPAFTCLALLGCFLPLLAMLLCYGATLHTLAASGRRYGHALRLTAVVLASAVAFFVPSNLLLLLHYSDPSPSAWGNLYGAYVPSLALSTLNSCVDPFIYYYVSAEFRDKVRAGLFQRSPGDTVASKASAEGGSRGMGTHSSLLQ
ASSAY DETAILS: PAR4 FLIPR assay: antagonism of agonist-peptide-induced calcium mobilization in PAR4-expressing HEK293 cells
CONDITION DETAILS: H-Ala-Phe(4-F)-[…]NH2-induced intracellular calcium mobilization, 11-point curves
RESULT TYPE: IC50 (nM)

MOLECULE: Cc1cc(-c2nc3cccc(OCc4cscn4)c3s2)c2ncc(OC(F)F)nc2c1
REPORTED: 38
//
MOLECULE: CCOC(=O)C1(C(O)c2cc(OC)cc3sc(-c4cc(C)cc5nc(OC)cnc45)nc23)CCC1 (stereo not drawn)
REPORTED: 21
//
MOLECULE: COc1cnc2c(-c3nc4c(Cl)c(F)c(OCCOC(=O)Nc5cncs5)cc4s3)cc(C)cc2n1
REPORTED: 18
//
MOLECULE: COc1cnc2c(-c3nc4cc(F)c(OC[C@@H](C)OC(=O)Nc5ccc(C(=O)N6CC[C@@H](O)C6)nc5)cc4s3)cc(C)cc2n1
REPORTED: 4.8
//
MOLECULE: COCc1cnc2c(-c3nc4c(C)c(F)c(OC)cc4s3)cc(C)cc2n1
REPORTED: 0.7
//
MOLECULE: COc1cnc2c(-c3nc4cc(F)c(O[C@@H](C)[C@@H](C)OC(=O)Nc5cncc(F)c5)nc4s3)cc(Cl)cc2c1
REPORTED: 2.5

* * *

ASSAYED TARGET: human PAR4 (Homo sapiens, UniProt Q96RI0)
Sequence (Q96RI0 18-385): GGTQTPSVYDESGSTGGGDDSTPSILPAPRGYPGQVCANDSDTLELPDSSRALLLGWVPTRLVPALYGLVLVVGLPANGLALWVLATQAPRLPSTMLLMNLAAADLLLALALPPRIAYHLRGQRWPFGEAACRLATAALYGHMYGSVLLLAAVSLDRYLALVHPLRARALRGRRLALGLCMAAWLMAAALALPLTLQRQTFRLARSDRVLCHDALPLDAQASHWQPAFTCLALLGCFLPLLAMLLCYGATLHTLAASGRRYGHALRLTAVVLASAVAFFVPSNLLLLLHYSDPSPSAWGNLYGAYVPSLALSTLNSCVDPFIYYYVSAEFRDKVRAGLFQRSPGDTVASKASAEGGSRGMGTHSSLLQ
ASSAY DETAILS: PAR4 FLIPR assay: antagonism of agonist-peptide-induced calcium mobilization in PAR4-expressing HEK293 cells
CONDITION DETAILS: H-Ala-Phe(4-F)-[…]NH2-induced intracellular calcium mobilization, 11-point curves
pIC50: −log10 of the molar value.

COMPOUND: COCc1cnc2c(-c3nc4c(C5CC5)cc(OCCNS(=O)(=O)c5ccccc5)cc4s3)cc(C)cc2n1 [Example 104]
pIC50: 8.77
--
COMPOUND: COc1cnc2c(-c3nc4cc(F)c(OC[C@@H](C)OC(=O)Nc5ccncc5)nc4s3)cc(C)cc2n1 [Example 680]
pIC50: 9.10
--
COMPOUND: COc1cnc2c(-c3nc4cc(F)c(OC[C@@H](C)OC(=O)Nc5cnc(CO)nc5)cc4s3)cc(C)cc2n1 [Example 496]
pIC50: 8.72
--
COMPOUND: COCc1cnc2c(-c3nc4c(Cl)cc(OC)c(F)c4s3)cc(C)cc2n1 [Example 265]
pIC50: 8.17
--
COMPOUND: COCc1cnc2c(-c3nc4c(Cl)cc(OC)cc4s3)cc(C)cc2n1 [Example 93]
pIC50: 9.52
--
COMPOUND: COCc1cnc2c(-c3nc4c(F)cc(F)cc4s3)cc(C)cc2n1 [Example 257]
pIC50: 8.68
--
COMPOUND: COCc1cnc2c(-c3nc4c(C)cc(OC)cc4s3)cc(C)cc2c1OC [Example 190]
pIC50: 5.77
--
COMPOUND: Cc1cc(-c2cc3cc(OCc4ccccc4)ccc3o2)c2ncc(OC(F)F)nc2c1 [Example 44]
pIC50: 6.66

* * *

ASSAYED TARGET: human PAR4 (Homo sapiens, UniProt Q96RI0)
Sequence (Q96RI0 18-385): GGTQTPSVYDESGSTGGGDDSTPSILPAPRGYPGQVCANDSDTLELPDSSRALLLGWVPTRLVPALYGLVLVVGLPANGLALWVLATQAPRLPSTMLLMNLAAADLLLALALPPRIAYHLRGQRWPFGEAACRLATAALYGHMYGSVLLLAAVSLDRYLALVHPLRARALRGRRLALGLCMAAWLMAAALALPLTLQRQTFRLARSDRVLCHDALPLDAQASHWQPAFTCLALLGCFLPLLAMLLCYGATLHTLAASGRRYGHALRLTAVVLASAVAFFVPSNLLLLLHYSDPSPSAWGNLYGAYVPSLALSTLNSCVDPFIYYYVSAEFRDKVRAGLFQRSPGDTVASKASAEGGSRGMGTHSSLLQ
ASSAY DETAILS: PAR4 FLIPR assay: antagonism of agonist-peptide-induced calcium mobilization in PAR4-expressing HEK293 cells
CONDITION DETAILS: H-Ala-Phe(4-F)-[…]NH2-induced intracellular calcium mobilization, 11-point curves
pIC50: −log10 of the molar value.
Overview of reported pIC50 across a group of compounds:

CHEMICAL STRING: COCCOc1ccc2nc(-c3cc(C)cc4nc(OC)cnc34)sc2c1
ASSAYED TARGET: human PAR4 (Homo sapiens, UniProt Q96RI0)
pIC50: 6.89

CHEMICAL STRING: COc1cnc2c(-c3nc4c(Cl)c(F)c(OCCOC(=O)Nc5ccnc(C)c5)cc4s3)cc(C)cc2n1
ASSAYED TARGET: human PAR4 (Homo sapiens, UniProt Q96RI0)
pIC50: 8.26

CHEMICAL STRING: COCc1cnc2c(-c3nc4cc(C)c(OC)cc4s3)cc(C)cc2n1
ASSAYED TARGET: human PAR4 (Homo sapiens, UniProt Q96RI0)
pIC50: 8.92

CHEMICAL STRING: COc1cnc2c(-c3nc4c(C)cc(OCCNS(=O)(=O)c5ccc(F)cc5)cc4s3)cc(CN)cc2n1
ASSAYED TARGET: human PAR4 (Homo sapiens, UniProt Q96RI0)
pIC50: 5.89

CHEMICAL STRING: Cc1cc(-c2nc3c(C)cc(OCCNS(=O)(=O)c4ccc(F)cc4)cc3s2)c2ncc(C3CC3)nc2c1
ASSAYED TARGET: human PAR4 (Homo sapiens, UniProt Q96RI0)
pIC50: 7.21

CHEMICAL STRING: Cc1cc(-c2nc3c(C)cc(OCCNS(=O)(=O)c4ccc(F)cc4)cc3s2)c2ncc(OC(F)F)nc2c1
ASSAYED TARGET: human PAR4 (Homo sapiens, UniProt Q96RI0)
pIC50: 8.82

CHEMICAL STRING: Cc1cc(-c2nc3cc(F)c(O[C@@H](C)[C@@H](C)OC(=O)Nc4cnc(C)nc4)cc3s2)c2ncc(C(N)=O)nc2c1
ASSAYED TARGET: human PAR4 (Homo sapiens, UniProt Q96RI0)
pIC50: 7.19

CHEMICAL STRING: COCc1cnc2c(-c3nc4ccc(C(=O)OC)cc4s3)cc(C)cc2n1
ASSAYED TARGET: human PAR4 (Homo sapiens, UniProt Q96RI0)
pIC50: 8.08

CHEMICAL STRING: CCOc1cnc2c(-c3nc4cc(F)c(O[C@@H](C)[C@@H](C)OC(=O)Nc5cnc(CCO)nc5)cc4s3)cc(C)cc2n1
ASSAYED TARGET: human PAR4 (Homo sapiens, UniProt Q96RI0)
pIC50: 8.74
